System: SOX2
measurement.notes: SOX2 expression by western blotting / flow cytometry
Format: cell-based, human
test.settings: agent alone; bladder cancer cells
parameter.measured: SOX2 expression

1) CCc1cccc2c3c([nH]c12)C(CC)(CC(=O)O)OCC3 (centres unmarked) | dramatic reduction
2) CC(C(=O)Nc1cc(C#N)ccc1CCCC(=O)O)c1ccc(F)c2ccccc12 (centres unmarked) | dramatic reduction
